assay_explanation: label from the status in PepcDB records
measurement_name: protein production

# annotated cases, reported protein production shown
MVRKLRHFGDRLREEPDKFRFVLSRALWVTGLCRLITFSFPAGYRMRFYPSAISAGLWRDRNFRSEDADFVAGYLRPGETFVDVGANVGQLSLVAARRVTSSGRTIAIEAHPRTCNFLRGNVRLNGLPIEIHNVAVGSECGELFFTNFRSDDMNFAYAASPRNGSALRVPVATLDSIIGERPVDLLKVDVEGFECDLLRGAAQTLHNCRCLYIEDSEPNLRRAGSSRVELYDRLSEGGFELFHVRGKRLERVSVQAAGPLTENLIAVRGSDLPDALARTGFCLA = failed
MLNIQNYSASPHPGIVAERPQTPSASEHAEIAVVPSTTEHRGTDIISLSQAATKIQQAQQTLQSTPPISEENNDERTLARQQLTSSLNALAKSGVSLSAEQNENLRSTFSAPTSALFSASPMAQPRTTISDAEIWDMVSQNISAIGDSYLGVYENVVAVYTDFYQAFSDILSKMGGWLSPGKDGNTIKLNVDSLKSEISSLINKYTQINKNTILFPSQTGSGMTTATKAEAEQWIKELNLPDSCLKASGSGYVVLVDTGPLSKMVSDLNGIGSGSALELDNAKYQAWQSGFKAQEENLKTTLQTLTQKYSNANSLYDNLVKVLSSTISSSLETAKSFLQG = failed
GVQKVDKARKQITVAGGTRINEVGKTLKQHGLSLINQGDIDSQAVAGAFTTGTHGTGIKLGNMASSIAGMRIVKANGEILDIDGSDEELLHAAQVSVGTLGIISSMTLNVMDA = failed
MSTEKIINLAAYAGKILLQSGAEIYRVEETMNKICTAFNVKEAESFVTPTGIIISITGEDEKITSTIKRIQVRTVDLRKISEVNDLSRTLQYKNFSLEEVADKLKKIDNEKKHSDLFLIFFSAVAAGFFTLIFGGTFRDFSVSFFIGIIIKIFSIIISRLEINDFFLNMVGGAIAAFIALLFKKLGVVVYLDKTIIGSIMLLVPGLAITNAVRDTIAGDLVSGVSRALDAFFTAVAIAAGTGLVFKIWINFFGGTGL = failed
GQLAQDGVPEWFHGAISREDAENLLESQPLGSFLIRVSHSHVGYTLSYKAQSSCCHFMVKLLDDGTFMIPGEKVAHTSLDALVTFHQQKPIEPRRELLTQPCRQKD = not failed
MKKLNTNKLTEEQVNLFKNNLVYLATVDADGNPQVGPKGSMTVLDPSHLQYLEKTKGEAYENIKRGSKVALVAADVPSHTAVRVLATAEVHEDDDYAKKVLAKTEFPNAFVVNLNIEEVFA = not failed

### Prompt So what does the record say about protein production for MSTDQTPTAAGSGFSYTLTRTLDAPAARVWQAWTTPDQYAQWAYAVPGSVEMDVRPGGTWKATMRTPDGTEFPLTGSYIEVAEHRALTIGMNVPGRPDPATMTVELAEEGPRNTVITLRQTCDTAEERDGAEQGSGMLLDGLTGFLAGGKQG ?
### Response failed
